Lab note: MIC readings collected with Staphylococcus epidermidis EPI1 for the following molecules.

molecule: CCC(=O)OCC1C=C(C)C=CC(=O)C(C)CC(CC=O)C(OC2OC(C)C(OC3CC(C)(O)C(O)C(C)O3)C(N(C)C)C2OC(C)=O)C(C)C(O)CC(=O)OC1CC (stereo not drawn)
MIC [µg/mL]: 1
--
molecule: CCC1OC(=O)CC(O)C(C)C(OC2OC(C)C(OC3CC(C)(O)C(O)C(C)O3)C(N(C)C)C2OC(C)=O)C(CC=O)CC(C)C(=O)C=CC(C)=CC1COC(=O)CCc1ccccc1 (stereo not drawn)
MIC [µg/mL]: 1
--
molecule: CCC1OC(=O)CC(O)C(C)C(OC2OC(C)C(OC3CC(C)(O)C(O)C(C)O3)C(N(C)C)C2O)C(CC=O)CC(C)C(=O)C=CC(C)=CC1COC(=O)NCCN1CCOCC1 (stereo not drawn)
MIC [µg/mL]: 1
--
molecule: CCC1OC(=O)CC(O)C(C)C(OC2OC(C)C(OC3CC(C)(O)C(O)C(C)O3)C(N(C)C)C2OC(C)=O)C(CC=O)CC(C)C(=O)C=CC(C)=CC1COC(=O)C=Cc1ccccc1 (stereo not drawn)
MIC [µg/mL]: 1
--
molecule: CCC1OC(=O)CC(O)C(C)C(OC2OC(C)C(OC3CC(C)(O)C(O)C(C)O3)C(N(C)C)C2OC(=O)Cc2ccccc2)C(CC=O)CC(C)C(=O)C=CC(C)=CC1COC(=O)Cc1ccccc1 (stereo not drawn)
MIC [µg/mL]: 1
--
molecule: CCC1OC(=O)CC(O)C(C)C(OC2OC(C)C(OC3CC(C)(O)C(O)C(C)O3)C(N(C)C)C2O)C(CC=O)CC(C)C(=O)C=CC(C)=CC1COC(=O)n1ccnc1 (stereo not drawn)
MIC [µg/mL]: 0.5
--
molecule: CCC(=O)OCC1C=C(C)C=CC(=O)C(C)CC(CC=O)C(OC2OC(C)C(OC3CC(C)(O)C(O)C(C)O3)C(N(C)C)C2O)C(C)C(O)CC(=O)OC1CC (stereo not drawn)
MIC [µg/mL]: 1
--
molecule: CCC1OC(=O)CC(O)C(C)C(OC2OC(C)C(OC3CC(C)(O)C(O)C(C)O3)C(N(C)C)C2O)C(CC=O)CC(C)C(=O)C=CC(C)=CC1COC(=O)OC (stereo not drawn)
MIC [µg/mL]: 0.5
--
molecule: CCC1OC(=O)CC(O)C(C)C(OC2OC(C)C(OC3CC(C)(O)C(O)C(C)O3)C(N(C)C)C2O)C(CC=O)CC(C)C(=O)C=CC(C)=CC1COC(=O)NCCCCCCCCN (stereo not drawn)
MIC [µg/mL]: 2
--
molecule: CCC1OC(=O)CC(O)C(C)C(OC2OC(C)C(OC3CC(C)(O)C(O)C(C)O3)C(N(C)C)C2OC(C)=O)C(CC=O)CC(C)C(=O)C=CC(C)=CC1COC(=O)Cc1ccc([N+](=O)[O-])cc1 (stereo not drawn)
MIC [µg/mL]: 0.5
--
molecule: CCC(=O)OC1C(OC2C(CC=O)CC(C)C(=O)C=CC(C)=CC(COC(C)=O)C(CC)OC(=O)CC(O)C2C)OC(C)C(OC2CC(C)(O)C(O)C(C)O2)C1N(C)C (stereo not drawn)
MIC [µg/mL]: 1
--
molecule: CCC1OC(=O)CC(O)C(C)C(OC2OC(C)C(OC3CC(C)(O)C(O)C(C)O3)C(N(C)C)C2O)C(CC=O)CC(C)C(=O)C=CC(C)=CC1COC(=O)N1CCC(O)CC1 (stereo not drawn)
MIC [µg/mL]: 0.5
--
molecule: CCC1OC(=O)CC(O)C(C)C(OC2OC(C)C(OC3CC(C)(O)C(O)C(C)O3)C(N(C)C)C2OC(C)=O)C(CC=O)CC(C)C(=O)C=CC(C)=CC1COC(=O)C(C)(C)C (stereo not drawn)
MIC [µg/mL]: 0.5
--
molecule: CCC(=O)OCC1C=C(C)C=CC(=O)C(C)CC(CC=O)C(OC2OC(C)C(OC3CC(C)(O)C(O)C(C)O3)C(N(C)C)C2OC(=O)CC)C(C)C(O)CC(=O)OC1CC (stereo not drawn)
MIC [µg/mL]: 0.5
--
molecule: CCC1OC(=O)CC(O)C(C)C(OC2OC(C)C(OC3CC(C)(O)C(O)C(C)O3)C(N(C)C)C2OC(C)=O)C(CC=O)CC(C)C(=O)C=CC(C)=CC1COC(=O)n1ccnc1 (stereo not drawn)
MIC [µg/mL]: 2
--
molecule: CCC1OC(=O)CC(O)C(C)C(OC2OC(C)C(OC3CC(C)(O)C(O)C(C)O3)C(N(C)C)C2OC(C)=O)C(CC=O)CC(C)C(=O)C=CC(C)=CC1COC(=O)OC (stereo not drawn)
MIC [µg/mL]: 0.5
--
molecule: CCC1OC(=O)CC(O)C(C)C(OC2OC(C)C(OC3CC(C)(O)C(O)C(C)O3)C(N(C)C)C2OC(C)=O)C(CC=O)CC(C)C(=O)C=CC(C)=CC1COC(=O)Cc1ccc(Cl)cc1 (stereo not drawn)
MIC [µg/mL]: 1
--
molecule: CCC1OC(=O)CC(O)C(C)C(OC2OC(C)C(OC3CC(C)(O)C(O)C(C)O3)C(N(C)C)C2OC(C)=O)C(CC=O)CC(C)C(=O)C=CC(C)=CC1COC(=O)C(Cl)(Cl)Cl (stereo not drawn)
MIC [µg/mL]: 1
